Data provenance is BigSolDB 2.1.

- CONDITIONS: in methanol, 288.15 K
RESULT_TYPE: solubility (mole fraction)

>>> recorded_number("O=C1c2ccccc2-c2ccccc21")
0.0059

###

- CONDITIONS: in ethyl formate, 308.15 K
RESULT_TYPE: solubility (mole fraction)

>>> result("O=C1c2ccccc2-c2ccccc21")
0.32

###

- CONDITIONS: in ethyl formate, 288.15 K
RESULT_TYPE: solubility (mole fraction)

>>> recorded_number("O=C1c2ccccc2-c2ccccc21")
0.14

###

- CONDITIONS: in isobutanol, 293.15 K
RESULT_TYPE: solubility (mole fraction)

>>> recorded_number("O=C1c2ccccc2-c2ccccc21")
0.0305

###

- CONDITIONS: in ethyl acetate, 288.15 K
RESULT_TYPE: solubility (mole fraction)

>>> result("O=C1c2ccccc2-c2ccccc21")
0.142

###

- CONDITIONS: in n-hexane, 278.15 K
RESULT_TYPE: solubility (mole fraction)

>>> recorded_number("O=C1c2ccccc2-c2ccccc21")
0.0038

###

- CONDITIONS: in n-hexane, 318.15 K
RESULT_TYPE: solubility (mole fraction)

>>> recorded_number("O=C1c2ccccc2-c2ccccc21")
0.0304

###

- CONDITIONS: in isobutanol, 283.15 K
RESULT_TYPE: solubility (mole fraction)

>>> result("O=C1c2ccccc2-c2ccccc21")
0.0207

###

- CONDITIONS: in ethyl formate, 313.15 K
RESULT_TYPE: solubility (mole fraction)

>>> recorded_number("O=C1c2ccccc2-c2ccccc21")
0.366

###

- CONDITIONS: in n-hexane, 283.15 K
RESULT_TYPE: solubility (mole fraction)

>>> recorded_number("O=C1c2ccccc2-c2ccccc21")
0.0047

###

- CONDITIONS: in ethanol, 303.15 K
RESULT_TYPE: solubility (mole fraction)

>>> result("O=C1c2ccccc2-c2ccccc21")
0.0307

###

- CONDITIONS: in isobutanol, 298.15 K
RESULT_TYPE: solubility (mole fraction)

>>> recorded_number("O=C1c2ccccc2-c2ccccc21")
0.0387

###

- CONDITIONS: in DMSO, 313.15 K
RESULT_TYPE: solubility (mole fraction)

>>> recorded_number("O=C1c2ccccc2-c2ccccc21")
0.216

###

- CONDITIONS: in isobutanol, 308.15 K
RESULT_TYPE: solubility (mole fraction)

>>> recorded_number("O=C1c2ccccc2-c2ccccc21")
0.0622

###

- CONDITIONS: in DMSO, 278.15 K
RESULT_TYPE: solubility (mole fraction)

>>> recorded_number("O=C1c2ccccc2-c2ccccc21")
0.0418

###

- CONDITIONS: in acetonitrile, 313.15 K
RESULT_TYPE: solubility (mole fraction)

>>> recorded_number("O=C1c2ccccc2-c2ccccc21")
0.281

###

- CONDITIONS: in n-butanol, 293.15 K
RESULT_TYPE: solubility (mole fraction)

>>> result("O=C1c2ccccc2-c2ccccc21")
0.0286

###

- CONDITIONS: in methanol, 308.15 K
RESULT_TYPE: solubility (mole fraction)

>>> result("O=C1c2ccccc2-c2ccccc21")
0.0199

###

- CONDITIONS: in n-butanol, 318.15 K
RESULT_TYPE: solubility (mole fraction)

>>> recorded_number("O=C1c2ccccc2-c2ccccc21")
0.113

###

- CONDITIONS: in isopropanol, 313.15 K
RESULT_TYPE: solubility (mole fraction)

>>> recorded_number("O=C1c2ccccc2-c2ccccc21")
0.0592

###

- CONDITIONS: in n-butanol, 288.15 K
RESULT_TYPE: solubility (mole fraction)

>>> result("O=C1c2ccccc2-c2ccccc21")
0.0182

###

- CONDITIONS: in n-propanol, 308.15 K
RESULT_TYPE: solubility (mole fraction)

>>> recorded_number("O=C1c2ccccc2-c2ccccc21")
0.0653

###

- CONDITIONS: in n-hexane, 313.15 K
RESULT_TYPE: solubility (mole fraction)

>>> result("O=C1c2ccccc2-c2ccccc21")
0.0227

###

- CONDITIONS: in ethanol, 313.15 K
RESULT_TYPE: solubility (mole fraction)

>>> recorded_number("O=C1c2ccccc2-c2ccccc21")
0.0506

###

- CONDITIONS: in isopropanol, 318.15 K
RESULT_TYPE: solubility (mole fraction)

>>> recorded_number("O=C1c2ccccc2-c2ccccc21")
0.0801

###

- CONDITIONS: in ethyl formate, 283.15 K
RESULT_TYPE: solubility (mole fraction)

>>> recorded_number("O=C1c2ccccc2-c2ccccc21")
0.111

###

- CONDITIONS: in n-propanol, 298.15 K
RESULT_TYPE: solubility (mole fraction)

>>> recorded_number("O=C1c2ccccc2-c2ccccc21")
0.0381

###

- CONDITIONS: in isopropanol, 303.15 K
RESULT_TYPE: solubility (mole fraction)

>>> recorded_number("O=C1c2ccccc2-c2ccccc21")
0.0384

###

- CONDITIONS: in methanol, 318.15 K
RESULT_TYPE: solubility (mole fraction)

>>> recorded_number("O=C1c2ccccc2-c2ccccc21")
0.0401

###

- CONDITIONS: in n-propanol, 303.15 K
RESULT_TYPE: solubility (mole fraction)

>>> recorded_number("O=C1c2ccccc2-c2ccccc21")
0.0482

###

- CONDITIONS: in acetonitrile, 283.15 K
RESULT_TYPE: solubility (mole fraction)

>>> recorded_number("O=C1c2ccccc2-c2ccccc21")
0.0311

###

- CONDITIONS: in ethanol, 318.15 K
RESULT_TYPE: solubility (mole fraction)

>>> recorded_number("O=C1c2ccccc2-c2ccccc21")
0.0693

###

- CONDITIONS: in DMSO, 293.15 K
RESULT_TYPE: solubility (mole fraction)

>>> recorded_number("O=C1c2ccccc2-c2ccccc21")
0.0855

###

- CONDITIONS: in DMSO, 308.15 K
RESULT_TYPE: solubility (mole fraction)

>>> recorded_number("O=C1c2ccccc2-c2ccccc21")
0.178

###

- CONDITIONS: in ethanol, 283.15 K
RESULT_TYPE: solubility (mole fraction)

>>> result("O=C1c2ccccc2-c2ccccc21")
0.014

###

- CONDITIONS: in acetonitrile, 288.15 K
RESULT_TYPE: solubility (mole fraction)

>>> recorded_number("O=C1c2ccccc2-c2ccccc21")
0.0481

###

- CONDITIONS: in ethanol, 288.15 K
RESULT_TYPE: solubility (mole fraction)

>>> recorded_number("O=C1c2ccccc2-c2ccccc21")
0.0164

###

- CONDITIONS: in n-hexane, 288.15 K
RESULT_TYPE: solubility (mole fraction)

>>> recorded_number("O=C1c2ccccc2-c2ccccc21")
0.0054

###

- CONDITIONS: in ethanol, 298.15 K
RESULT_TYPE: solubility (mole fraction)

>>> recorded_number("O=C1c2ccccc2-c2ccccc21")
0.0267

###

- CONDITIONS: in ethanol, 308.15 K
RESULT_TYPE: solubility (mole fraction)

>>> recorded_number("O=C1c2ccccc2-c2ccccc21")
0.0428

###

- CONDITIONS: in n-propanol, 288.15 K
RESULT_TYPE: solubility (mole fraction)

>>> recorded_number("O=C1c2ccccc2-c2ccccc21")
0.0214

###

- CONDITIONS: in ethyl acetate, 318.15 K
RESULT_TYPE: solubility (mole fraction)

>>> recorded_number("O=C1c2ccccc2-c2ccccc21")
0.371

###

- CONDITIONS: in ethyl acetate, 298.15 K
RESULT_TYPE: solubility (mole fraction)

>>> result("O=C1c2ccccc2-c2ccccc21")
0.225

###

- CONDITIONS: in acetonitrile, 318.15 K
RESULT_TYPE: solubility (mole fraction)

>>> recorded_number("O=C1c2ccccc2-c2ccccc21")
0.358

###

- CONDITIONS: in n-propanol, 278.15 K
RESULT_TYPE: solubility (mole fraction)

>>> recorded_number("O=C1c2ccccc2-c2ccccc21")
0.0143

###

- CONDITIONS: in n-hexane, 293.15 K
RESULT_TYPE: solubility (mole fraction)

>>> recorded_number("O=C1c2ccccc2-c2ccccc21")
0.007

###

- CONDITIONS: in n-hexane, 303.15 K
RESULT_TYPE: solubility (mole fraction)

>>> recorded_number("O=C1c2ccccc2-c2ccccc21")
0.0132

###

- CONDITIONS: in ethyl formate, 303.15 K
RESULT_TYPE: solubility (mole fraction)

>>> recorded_number("O=C1c2ccccc2-c2ccccc21")
0.25

###

- CONDITIONS: in ethanol, 278.15 K
RESULT_TYPE: solubility (mole fraction)

>>> recorded_number("O=C1c2ccccc2-c2ccccc21")
0.0127

###

- CONDITIONS: in methanol, 283.15 K
RESULT_TYPE: solubility (mole fraction)

>>> recorded_number("O=C1c2ccccc2-c2ccccc21")
0.0044
